Tested on: OVCAR-5 ovarian
Assay: NCI-60 one-dose screen, 48 h (100 = growth as untreated, 0 = no growth, -100 = all killed)
Conditions: 10 µM unless noted
The panel holds about 83,000 compounds, 20% with a hit somewhere; the sample as a whole holds those more often. The source made the active and inactive calls. How the source made its calls: active means growth percent below 10; inactive means the rest.
Value kind: growth

Below are worked cases with known answers.
| Compound | growth |
| --- | --- |
| Cc1nn(-c2ccc(Cl)cc2)c(=O)n1CCOc1ccccc1Cl | 102% (inactive) |
| CCCCNC(=O)NS(=O)(=O)c1ccc(N2N=C(c3ccc(C)cc3C)CC2c2ccc(OC)cc2)cc1 (stereo not given) | 89.6% (inactive) |
| O=C(O)c1cccc([N+](=O)[O-])c1/C=C/c1ccccc1 | 108% (inactive) |

Form field: reported growth of Cc1ccc(Cn2c(-c3nonc3N)nc3ccccc32)cc1 81.2% (inactive)

# lookup: growth of Clc1ccc(/C=C/c2nc(N3CCOCC3)c3nc(Cl)c(Cl)cc3n2)cc1 110% (inactive)

What does the data say about its growth? Entry: Clc1ccc2c(c1)NC1(CCSc3ccccc31)n1nccc1-2 (stereo not given) 92.6% (inactive)

I would be grateful if you could share the reported growth for O=c1oc2cc(OS(=O)(=O)c3ccc(F)cc3)ccc2c2c1CCCCC2 . 66.2% (inactive)

Consider the compound shown here: O=C(O)c1ccc(-n2cc(CNc3ccc(C(F)(F)F)cc3)c(-c3ccccc3)n2)cc1 What is its recorded growth? 119% (inactive)

// growth lookup, key: COc1cc2c(cc1OC)C1(C)N(CC2)C(=O)OC1(C)C (stereo not given) 107% (inactive)

For the compound shown here, C=C1C(=O)O[C@H]2[C@H]1CC/C(Cn1cc(-c3ccc(N)cc3)nn1)=C\CC[C@@]1(C)O[C@@H]21 , give the reported growth. 38.4% (inactive)

====

Test system: DU-145 prostate
Assay: NCI-60 one-dose screen, 48 h (100 = growth as untreated, 0 = no growth, -100 = all killed)
Conditions: 10 µM unless noted
The panel holds about 83,000 compounds, 20% with a hit somewhere; the sample as a whole holds those more often.
Value kind: growth (%)
Response body: numeric value in %, unit text excluded.

Before answering, review these 5 worked examples.
| Molecule | Unit abbrev | growth |
| --- | --- | --- |
| COc1ccc2c(c1)NC(=O)CN2c1nc(NC2CC2)nc2ccccc12 | % | 0.326 |
| C=CCOc1cccc(/C=C/C(=O)c2sc(Nc3cccnc3)nc2C)c1 | % | 38.4 |
| CCOC(=O)CC/C(C)=N\Nc1ccc([N+](=O)[O-])cc1 | % | 88.6 |
| O=C(NCCCN1CCN(CCCNC(=O)C2CCCCC2)CC1)C1CCCCC1 | % | 110 |
| COc1cc(OC)c(C(=O)/C=C/c2ccc(C#N)cc2)c(OC)c1 | % | 18.3 |

Can you look up the measured growth of O=C1c2ccccc2C(=O)c2c(N=Nc3sc(=O)[nH]c3S)cccc21 for me? 103

Request the reported growth associated with COc1ccc(C(=O)c2cc(OC)c(OC)c(OC)c2)cc1/C=C/C(=O)c1ccc2c(c1)OCO2 33.8

====

Listed here: items and their measured growth.
Test system: HCT-116 colon
Assay: NCI-60 one-dose screen, 48 h (100 = growth as untreated, 0 = no growth, -100 = all killed)
Conditions: 10 µM unless noted
The panel holds about 83,000 compounds, 20% with a hit somewhere; the sample as a whole holds those more often. Calls of active or inactive are those of the source. Rule for the calls: active = growth percent below 10; inactive = the rest.

Completed entries (count: 3):
| Compound | Experimental result |
| --- | --- |
| NC(=O)c1c(NC(=O)c2ccc(OCC3CCCO3)cc2)sc2c1CCCC2 (stereo not given) | 90% (inactive) |
| COc1c(NC[C@H]2OC(O)[C@H](O)[C@@H](O)[C@@H]2O)c(=O)c1=O (stereo not given in full) | 100% (inactive) |
| O=C(O)c1cn(C2CC2)c2cc(N3CCN(S(=O)(=O)c4ccc(Cl)c(Cl)c4)CC3)c(F)cc2c1=O | 3.95% (active) |

Param item = Nc1c(C(=O)Nc2ccccc2)sc2nc3c(cc12)CCC3 ; retrieve measured growth. 66.6% (inactive)

growth lookup needed for COc1ccc(/C=C2\CCCC3=C2NC(C)=NC3c2ccc(OC)c(OC)c2)cc1OC (stereo not given) , thanks. -95.7% (active)

What value of growth has been reported for the following compound? c1ccc(CCn2nnc3c(Nc4ccc(N5CCOCC5)cc4)ncnc32)cc1 54% (inactive)

May I ask what growth has been recorded for COC(=O)C(CC(=O)c1ccc(-c2ccccc2)cc1)c1ccccc1 (stereo not given) ? 23.5% (inactive)

Reported growth for Cc1cc(NC(=O)COC(=O)c2sc3cc(F)ccc3c2Cl)no1 : what is it? 103% (inactive)

Requested read-out: growth. Entry: Cc1oc2ncnc(Nc3ccccc3)c2c1C(=O)NCCO 99.3% (inactive)

Given the entry NC(C(=O)O)C(O)c1ccc(OCc2ccccc2)c(OCc2ccccc2)c1 (stereo not given) , report its measured growth. 101% (inactive)

====

// values below are reported growth
System: CCRF-CEM leukemia
Experiment: NCI-60 one-dose screen, 48 h (100 = growth as untreated, 0 = no growth, -100 = all killed)
Conditions: 10 µM unless noted
This is part of a sample that, as a whole, favours compounds with a hit. Of some 83,000 tested, about 20% had one in any assay.
Give just the numeric value; % need not be written.

Below are worked cases with known answers.
| Molecule | Value kind | Unit abbrev | Experimental result |
| --- | --- | --- | --- |
| O=C(CNC(=O)c1cccc2ccccc12)Nc1ccccc1Oc1ccccc1 | growth | % | 18.3 |
| Cc1cc2c(C(C)C)c(O)c(O)c(C=NCCCCC(=O)O)c2c(O)c1-c1c(C)cc2c(C(C)C)c(O)c(O)c(C=NCCCCC(=O)O)c2c1O | growth | % | 29.8 |
| COc1cc(C2C3=C(COC3=O)Nc3c2ccc2c3CCCC2)cc2c1OCO2 (configuration not stated) | growth | % | 14.6 |
| O=c1oc2cc(OS(=O)(=O)c3ccccc3)c(Cl)cc2c2c1CCCCCC2 | growth | % | 81 |
| NS(=O)(=O)c1ccc(CN2C(=O)c3cccc4cccc(c34)C2=O)cc1 | growth | % | 85.8 |

growth for C=CCOc1ccc(/C(O)=C2\C(=O)C(=O)N(c3nccs3)C2c2ccccc2F)cc1 (configuration not stated) ? 131

Name the recorded growth for CCN(CC)CCC(=O)c1cccc2ccccc12 . 100

Requested field: growth. Item: COc1ccccc1OCC(=O)Nc1sc2c(c1C(N)=O)CCC2 24.3

Which value of growth has been reported for O=C(Nc1cccc(Cl)c1)c1cc([N+](=O)[O-])ccc1O in the records? 46.4

Please give the measured growth for this molecule: O=c1oc2cc(OS(=O)(=O)c3ccc(F)cc3)ccc2c2c1CCCCC2 36

====

Tested on: KM12 colon
Test: NCI-60 one-dose screen, 48 h (100 = growth as untreated, 0 = no growth, -100 = all killed)
Conditions: 10 µM unless noted
Protocol: Growth inhibition of the KM12 human tumor cell line is measured as a screen for anti-cancer activity. Cells are grown in 96 well plates and exposed to the test compound for 48 hours. Compounds are tested at a single concentration, which is 10^-5 M for most compounds. The reported endpoint is percent growth (GI% or GIPRCNT), where numbers from 0 - 100% represent growth inhibition, and numbers from -100% - 0 represent cell death. For example, a value of 40 represents 60% growth inhibition. […]
This is part of a sample that, as a whole, favours compounds with a hit. Of some 83,000 tested, about 20% had one in any assay.
Hi, to clarify the labels: y covers growth from 40% upward, n covers anything below 40%.

See these solved cases before continuing.
| Compound | Label value |
| --- | --- |
| COc1ccc(NC(=O)c2cc3ccccc3nc2Nc2cc(OC)c(OC)c(OC)c2)cc1 | n |
| CCCCNC(=O)NS(=O)(=O)c1ccc(N2N=C(c3ccc(C)cc3C)CC2c2ccc(OC)cc2)cc1 (stereo not given) | y |

Hi, just wondering whether O=C(CNc1c(Cl)cccc1Cl)Nc1ccc(-c2nc3ccccc3s2)cc1 shows growth of 40% or higher. y

Does the reported growth for CCOC(=O)C1=C(C)NC(=O)NC1c1ccc(OCC(=O)N/N=C/c2ccc(Cl)cc2)cc1 (stereo not given) fall at or above the 40% mark? y

Item COc1cc(/C=C/C(=O)c2ccccc2O)ccc1OCCCOc1cc2c(cc1OC)C(=O)N1CCC[C@H]1C=N2 with growth of 40% or above? n

====

System: K-562 leukemia
Test: NCI-60 one-dose screen, 48 h (100 = growth as untreated, 0 = no growth, -100 = all killed)
Conditions: 10 µM unless noted
This is part of a sample that, as a whole, favours compounds with a hit. Of some 83,000 tested, about 20% had one in any assay.
Value kind: growth (%)
Respond with the bare value in %.

Sample records with growth:
| Mol | Unit abbrev | growth |
| --- | --- | --- |
| Cc1oc2nc[nH]c(=O)c2c1C(=O)/C=C/c1ccc(Cl)cc1Cl | % | 17.8 |
| CCCS(=O)(=O)c1nc(NC2CC2)cc(-c2ccc3c(ccn3C3CC(C)(C)NC(C)(C)C3)c2)n1 | % | -52.6 |
| Nc1cc2c(cc1N)-c1cc(N)c(N)cc1C2 | % | 107 |

What growth value was documented for this compound, COc1ccc(/C=C/C(=O)/C=C/c2cc3ccc(Cl)cc3[nH]c2=O)cc1 ? 53.2

What does the data say about its growth? Entry: CCCCCCCCCCn1cc[n+](C)c1 64.2

Give its growth value. Item: Cc1ccc(Cn2c(-c3nonc3N)nc3ccccc32)cc1 12.9

Value source: PubChem BioAssay (NCI)
